Values compiled from paper PMC11855827.

- Test system: C. elegans
- experimental context: Table S2, C. elegans SS assay, 110 μM, 0 h, averages of 4 data points
measure name: Percentage of motility inhibition 0 h (%)
A number alone suffices; assume %.

Record excerpt, results attached:
molecule	assay result
CC(C)C1=CC(=O)C(C)(C2C(O)CC3(C)C4CC=C5C(CCC(OC6OC(CO)C(O)C(O)C6OC6OC(C)C(O)C(O)C6O)C5(C)C)C4(C)C(=O)CC23C)O1 (stereo not shown)	0
CC(C)=C[C@H]1C[C@](C)(O)[C@@H]2[C@H]3CC[C@@H]4[C@@]5(C)CC[C@H](O[C@@H]6OC[C@H](O)[C@H](O[C@@H]7O[C@H](CO)[C@@H](O)[C@H](O)[C@H]7O)[C@H]6O[C@@H]6O[C@@H](CO)[C@H](O)[C@H]6O)C(C)(C)[C@@H]5CC[C@@]4(C)[C@@]34CO[C@@]2(C4)O1 [Bacopaside X]	9
COc1ccc(-c2cc(=O)c3c(O)cc(OC)cc3o2)cc1	0

What measured Percentage of motility inhibition 0 h is associated with O[C@H]1CCN2Cc3ccccc3N=C12 (racemic) [(±)‐Vasicine] on C. elegans? 3

---

- Tested on: C. elegans
- assay comment: microbe, parasite or virus in culture
- experimental context: Caenorhabditis elegans, 0 h, read-out: Percentage of motility inhibition 0 h, Table S2, C. elegans SS assay, 110 μM, 0 h, averages of 4 data points
# reported inhibition at 110 µM; entries follow
Provide the reading as a plain figure in %.

> print(dat)
                                   compound  assay.result
1  CC1(C)CC[C@]2(C(=O)O)CC[C@]3(C)C(=CC[C@@H]4[C@@]5(C)C[C@@H](O)[C@H](O)C(C)(C)[C@@H]5CC[C@]43C)[C@@H]2C1 [Maslinic acid]             0
2  C[C@H](CCC(=O)O)[C@H]1CC[C@H]2[C@@H]3CC[C@@H]4C[C@H](O)CC[C@]4(C)[C@H]3C[C@H](O)[C@]12C [Deoxycholic acid]            29
3  O=C(CO)[C@@H](O)[C@H](O)[C@H](O)CO [Fructose]             0
4  C=C[C@]12CN(C)[C@@H]3[C@H]4CO[C@H](C[C@H]41)[C@]1(C(=O)Nc4ccccc41)[C@@H]32 [Gelsemi ne]             0
5  COc1ccc(-c2cc(=O)c3c(O)c(OC)c(OC)cc3o2)cc1 [Salvigenin]            22
6  N[C@@H](CCC(=O)O)C(=O)O [L-Glutamic acid]             3
7  CN1CC[C@]23C(=O)C[C@H]4C(=CCO[C@H]5CC(=O)N(c6c(O)cccc62)[C@H]3[C@H]54)C1 [Vomicine]             0
8  COc1ccc(-c2oc3c(CC=C(C)C)c(O)cc(O)c3c(=O)c2O)cc1 [Icaritin]             0

API: the following record is the query input.
Reported inhibition at 110 µM for C. elegans, given C[C@H](CCC(=O)O)[C@H]1CC[C@H]2[C@@H]3[C@H](O)C[C@@H]4C[C@H](O)CC[C@]4(C)[C@H]3CC[C@]12C [Chenodeoxycholic Acid] ? 0

---

Listing: Percentage of motility inhibition 0 h of selected compounds
- Tested on: C. elegans
- experimental context: Table S2, C. elegans SS assay, 110 μM, 0 h, averages of 4 data points
Field: numeric (%). Do not append units.

Some solved cases for reference:
compound	Percentage of motility inhibition 0 h [%]
COc1ccc2c(c1O)-c1c(O)c(OC)cc3c1[C@H](C2)[N+](C)(C)CC3.[Cl-] [(+)‐Magnoflorine (chloride)]	0
CCCCCCCCCCCCCCCC(=O)NCc1ccccc1 [N‐Benzylpalmitamide]	0

If you can, please state the reported Percentage of motility inhibition 0 h value of CC1(C)CC[C@]2(C(=O)O[C@@H]3O[C@H](CO)[C@@H](O)[C@H](O)[C@H]3O)CC[C@]3(C)C(=CC[C@@H]4[C@@]5(C)CC[C@H](O)C(C)(C)[C@@H]5CC[C@]43C)[C@@H]2C1 [Oleanolic acid 28-O-β-D-glucopyranoside] . 33

---

- System: C. elegans
- experimental context: Table S2, C. elegans SS assay, 110 μM, 0 h, averages of 4 data points
measure name: Percentage of motility inhibition 0 h (%)
Numbers only here, please. The scale is %.

molecule	scale unit	Percentage of motility inhibition 0 h
C=C(C)[C@@H]1CC[C@]2(C)CC[C@]3(C)[C@H](CC[C@@H]4[C@@]5(C)CC[C@H](OC(C)=O)C(C)(C)[C@@H]5CC[C@]43C)[C@@H]12 [Lupeol acetate]	%	0
CSC(=O)OCC1=C[C@@H]2OC(=O)C3=CO[C@@H](O[C@@H]4O[C@H](CO)[C@@H](O)[C@H](O)[C@H]4O)[C@H]1[C@@H]32 [Paederoside]	%	9
NCCCC[C@H](N)C(=O)O.O [L-Lysine hydrate]	%	8
CC1=C[C@@H]2C(=O)[C@]3(C=C(C)[C@H](O)[C@@]3(O)[C@@H]1O)[C@H](C)C[C@@H]1[C@H]2C1(C)C	%	0
CC1(C)CC(NC(=O)C(=O)Nc2ccc(Br)cc2)CC(C)(C)N1	%	22

Report Percentage of motility inhibition 0 h for `CC1(C)CC[C@]2(C(=O)O)CC[C@]3(C)C(=CC[C@@H]4[C@@]5(C)CC[C@H](O[C@@H]6O[C@H](C(=O)O)[C@@H](O)[C@H](O[C@@H]7OC[C@@H](O)[C@H](O)[C@H]7O)[C@H]6O)C(C)(C)[C@@H]5CC[C@]43C)[C@@H]2C1` please. 12

---

Quick reference: inhibition at 110 µM of the listed items.
- Test system: C. elegans
- assay comment: microbe, parasite or virus in culture
- experimental context: Caenorhabditis elegans, 24 h, read-out: Percentage of motility inhibition 24 h, Table S2, C. elegans SS assay, 110 μM, 24 h, averages of 4 data points
Express the result in % but write the number alone.

compound	measure name	scale unit	assay result
COc1ccc2c(OC)c3ccoc3nc2c1 [Evolitrine]	inhibition at 110 µM	%	15
O=C(OCC1=C[C@@H](O)[C@@H]2C=CO[C@@H](O[C@@H]3O[C@H](CO)[C@@H](O)[C@H](O)[C@H]3O)[C@H]12)c1ccc(O)cc1 [Agnuside]	inhibition at 110 µM	%	15
C/C=C(/C)C(=O)O[C@H]1[C@H](O)[C@]2(COC(C)=O)[C@H](O)C[C@]3(C)C(=CC[C@@H]4[C@@]5(C)CC[C@H](O[C@@H]6O[C@H](C(=O)O)[C@@H](O[C@@H]7O[C@H](CO)[C@@H](O)[C@H](O)[C@H]7O)[C@H](O)[C@H]6O[C@@H]6O[C@H](CO)[C@@H](O)[C@H](O)[C@H]6O)[C@](C)(CO)[C@@H]5CC[C@]43C)[C@@H]2CC1(C)C [Isoescin IB]	inhibition at 110 µM	%	0

Given C=C(CC[C@@H](C(=O)O)[C@H]1CC[C@@]2(C)C3=C(CC[C@]12C)[C@@]1(C)CC[C@H](O)C(C)(C)[C@@H]1CC3)C(C)C [Eburicoic acid] , state its recorded inhibition at 110 µM. 56

---

- Test system: C. elegans
- assay comment: microbe, parasite or virus in culture
- experimental context: Caenorhabditis elegans, 0 h, read-out: Percentage of motility inhibition 0 h, Table S2, C. elegans SS assay, 110 μM, 0 h, averages of 4 data points
*1 amine or outer side, *2 acyl side, *3 side chain or, on linkers, in order; H or OH if unused. Where a SMILES comes first, the peptide text is derived from it. Bridges are numbered along the chain shown (N, C = ends). [ ]: non-standard residue; d: D form. The star is where a group is joined. pTerphenylCO(4''-OnC5H11) = CCCCCOc1ccc(-c2ccc(-c3ccc(C(=O)*)cc3)cc2)cc1; Orn(4R-OH,5R-OH) = O=C([C@H](C[C@@H](O)[C@@H](O)N[*:3])N[*:1])[*:2]; hTyr(3S-OH,4S-OH) = N[C@H](C(=O)O)[C@H](O)[C@@H](O)c1ccc(O)cc1; Pro(3S-OH,4S-Me) = C[C@H]1CN[C@H](C(=O)O)[C@H]1O; Hyp = O=C(O)[C@@H]1C[C@@H](O)CN1
Classify as follows. Reported inhibition at 110 µM greater than or equal to 5%: y. Reported inhibition at 110 µM below: n.

// known answers, use as guide
molecule	discrete label
CC(=O)N1CCN(c2ccc(OCC3COC(Cn4ccnc4)(c4ccc(Cl)cc4Cl)O3)cc2)CC1 (stereo not drawn) [Ketoconazole]	y
CC1(C)CC[C@]2(C(=O)O)[C@H](O)C[C@]3(C)C(=CC[C@@H]4[C@@]5(C)CC[C@H](O)[C@@](C)(C=O)[C@@H]5CC[C@]43C)[C@@H]2C1 [Quillaic acid]	y
CC(C)[C@H](N)C(=O)O [L-Valine]	n
O=C(O)c1ccccc1O [Salicylic acid]	y
CCCCCOc1ccc(-c2ccc(-c3ccc(C(=O)N[C@H]4C[C@@H](O)[C@@H](O)NC(=O)[C@@H]5[C@@H](O)[C@@H](C)CN5C(=O)[C@H]([C@@H](C)O)NC(=O)[C@H]([C@H](O)[C@@H](O)c5ccc(O)cc5)NC(=O)[C@@H]5C[C@@H](O)CN5C(=O)[C@H]([C@@H](C)O)NC4=O)cc3)cc2)cc1 [Anidulafungin] ({pTerphenylCO(4''-OnC5H11)}-[Orn(4R-OH,5R-OH)]T[Hyp][hTyr(3S-OH,4S-OH)]T[Pro(3S-OH,4S-Me)]; lactam 1-C)	y

Could you tell me if the measured inhibition at 110 µM of COC(=O)[C@@]12OC[C@]34[C@H]([C@@H](O)[C@@H]1O)[C@@]1(C)CC(=O)C(O)=C(C)[C@@H]1C[C@H]3OC(=O)[C@H](OC(=O)/C=C(\C)C(C)C)[C@@H]24 [Bruceantin] reaches 5% or more? y

Say whether C[C@@H]1O[C@@H](OC[C@H]2O[C@@H](Oc3cc(O)c4c(=O)cc(-c5ccc(O)cc5)oc4c3)[C@H](O)[C@@H](O)[C@@H]2O)[C@H](O)[C@H](O)[C@H]1O [Isorhoifolin] shows inhibition at 110 µM of 5% or more. n

Could you tell me if the measured inhibition at 110 µM of C=C1C[C@@]23CC[C@H]4[C@@](C)(CCC[C@@]4(C)C(=O)O)[C@@H]2CC[C@]1(O)C3 [Steviol] reaches 5% or more? y
